Data provenance: patent US20160053277A1

assay.comment: 14C assay with IPTG-induced recombinant E. coli cells: 14CO2 captured from [14C]-carboxyl-labeled dicamba
measurement.context: induced recombinant E. coli cells, [14C]-carboxyl-labeled dicamba, 14CO2 capture
experimental.readout: Dicamba Decarboxylase Activity

Reported Dicamba Decarboxylase Activity for 29 (protein, listed as Pseudovibrio sp.) MAGRRDFLRKSVAAGVGLTAAAQLSAGGAQATVPDTSNIPLITLEEHFTTPELQSKNTSGDKRLFSGGGSRPELLDVGAGRIADMDEAGIDIQVLSTVTPGASKITGAEGVEFTRKFNTWIAEEVIAAYPNRFRAFATLPLSSPEAAADELERSVREYGFVGTMTYGPIDGKFLDHADYAPLLARAEALGVPIYIHPNWPSPTAMQAYYDGLGDDLTSRILSGPGYGWHQEIAVQCLRLIVGGVFDRFPNLQIVVGHMGEGLPFYYWRVGEDLDRIAQKRLQKPVQQYFHDNLWITTSAFFRDELLNLALATMGEDRVMFSVDYPMASAKVGADWLRAADIPLATKEKIGSKNAMKLLGIDKI : what is it?
No

Same question, 81 (protein, listed as Verticillium dahliae) MAASTKPKVVDIHTHMYPPSYIDILTSRTAIPVVRTFPQAADPRLILLDAEQQALDAALQDPTAKPPGRPLTSHYASLDQKIHFMDTHSIDISVVSLANPWLDFIEPKEAAATARSVNDEFEAMCASQPGRLFFFAALPLTAPLPALLEAVRHVAELEHCRGVILGTSGLGSGLDDPELVPVLEAVAAAALTVFLHPHYGLPNDVWGPRASAEYGHVLPLALGFPMETTIAVARMYLAGVFDRVPALRMLLAHSGGTLPFLAGRIESCILHDGQLVAEGKVGAARRTIWDVLREQVYLDAVIYSEIGLKAAIAASGGADRLMFGTDHPFFPPLGTDEQAKKESRINAGGSRPMITGNAMINGHGGLCNHITQSDYQDVVL this time
High

# iterate: 73 (protein, listed as Sphaerobacter thermophilus) MARIDAHAHAQPPEYLDALLASGRYESVRDAEGRIVVRERGSRFLTITPQMHHPEQRVAEMDEAGIDMQILSVTTPQVYFLQGQAAVDLARRCNDYLADIVRSYPTRFRALASVPLTADPDAAVREFVRCLDDLGMVGAIIGSNIDGRPIDDPAFDAFYAEADRRATTLFIHPMVPAGIEVMNPYALAPLVGFMFDTTLAVSRLIFSGFFERYPRVKVLVGHLGAAVPYLAGRLDIGWRSYSDCQGIPHPPTEYIRRLYLDTVSFHAPALRCALETVGPDRIVFGSDYPHVIGDVGGAIASIQQALPATTHDGVLGHTAAELFGVSA
Low

Now the same for 84 (protein, listed as Mycobacterium rhodesiae) MASLIALEEHYAWDPASEGNVVATWLRANNGVAYDRLYDRGPLRIEQMDAAGIDFQILSLFDPGVQDEVDAVRAVDLARRANDDLAESVRANPSRFGGFATLATQQPDAAVAEFDRAVTELGLVGGLINGHCQGRYLDDPAYEALFSRAEALGAPIYLHPTTPHPAVMDAWFAPYVGDGLHLASWGFAAETGTHVLRLIYSGLFDKFPRLQMIIGHLGEMLPFAAYRIDRYYGLGGGGTGHTLQHLPSDYLRNNFHVTTSGNFCSPALDCTLDVMGADRVMFSVDYPMDDNQTGADFLASYPMDDTNRRKVASENALRLFGDRIPAALRN
Low
